Taken from patent US20240270821A1.

# log10 of Relative cAMP EC50 per entry
Biological target: T1, human GIP receptor (human) (UniProt P48546)
T1 sequence (looked up): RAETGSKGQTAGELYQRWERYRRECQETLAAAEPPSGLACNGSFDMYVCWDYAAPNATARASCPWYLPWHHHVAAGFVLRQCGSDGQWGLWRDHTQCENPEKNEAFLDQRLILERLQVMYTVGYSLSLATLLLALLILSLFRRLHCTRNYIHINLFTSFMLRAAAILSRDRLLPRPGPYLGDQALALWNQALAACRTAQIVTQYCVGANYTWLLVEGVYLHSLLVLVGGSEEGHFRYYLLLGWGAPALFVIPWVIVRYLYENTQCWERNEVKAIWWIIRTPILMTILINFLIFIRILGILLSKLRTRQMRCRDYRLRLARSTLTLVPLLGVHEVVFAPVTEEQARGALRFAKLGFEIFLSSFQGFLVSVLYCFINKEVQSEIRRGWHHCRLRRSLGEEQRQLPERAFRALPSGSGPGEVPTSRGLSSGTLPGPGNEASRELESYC
Experiment: cell-based or functional assay
Starred links: 1 amine or outer side, 2 acyl side, 3 side chain; linkers in the order of their positions; H or OH if unused. Non-standard residues stand in square brackets, D forms with d. Groups on a side chain read outwards from the residue. No end group written: not given here. *: point of attachment. C18 diacid = O=C(O)CCCCCCCCCCCCCCCCC(=O)*; αMePhe(2-F) = C[C@](N)(Cc1ccccc1F)C(=O)O; γGlu = O=C(O)[C@H](CCC(=O)[*:2])N[*:1]; αMeL = CC(C)C[C@](C)(N)C(=O)O; Orn = NCCC[C@H](N)C(=O)O; Dap = NC[C@H](N)C(=O)O; AEEA = NCCOCCOCC(=O)O; Aib = CC(C)(N)C(=O)O
parameter.measured: log10 of Relative cAMP EC50 (log10 of the value in nM)

YXQGTXTSDXXIXLDXKAQXNFIEXLQEGGPSSGEPPPEGT (synthetic construct; SITE 2: note = 2-Aminoisobutyric Acid; SITE 6: note = alpha-methyl-2-fluoro-L-phenylalanine; SITE 10: note = 3-(4-Pyridyl)-L-alanine; SITE 11: note = alpha-methyl-L-serine; SITE 13: note = alpha-methyl-leucine; SITE 16: note = L-ornithine; SITE 17: note = Lysine is chemically mo) [Example 525] = -1.45
YXQGTXTSDXSIXLDXKAQXEFIEXLQEGGPSSGAPPPSGS (non-natural residues, acylated Lys (AEEA-γGlu-C18 diacid), C-terminal amide; synthetic construct; SITE 2: note = 2-Aminoisobutyric Acid; SITE 6: note = alpha-methyl-2-fluoro-L-phenylalanine; SITE 10: note = 3-(4-Pyridyl)-L-alanine; SITE 13: note = alpha-methyl-leucine; SITE 16: note = L-ornithine; SITE 17: note = Lysine is chemically modified through conjugation of the epsil) [Example 643] = -1.65
YXQGTXTSDXSIXLDKKAQXAFIEYLEEGGPSSGEPPPSGSEE (non-natural residues; lipidated Lys; C-terminal amide; synthetic construct; SITE 2: note = 2-Aminoisobutyric Acid; SITE 6: note = alpha-methyl-2-fluoro-L-phenylalanine; SITE 10: note = 3-(4-Pyridyl)-L-alanine; SITE 13: note = alpha-methyl-leucine; SITE 17: note = Lysine is chemically modified through conjugation of the epsilon-amino group of the Lysine) [Example 630] = -1.63
YXQGTFTSDFSXXLDKKAQXAFIEYLLEAGPSSGXPPPSGH (synthetic construct; SITE 2: note = 2-Aminoisobutyric Acid; SITE 12: note = L-ornithine; SITE 13: note = alpha-methyl-leucine; SITE 17: note = Lysine is chemically modified through conjugation of the epsilon-amino group of the Lysine side chain with (2-[2-(2-Amino-ethoxy)-ethoxy]-acetyl)2-(gamma-Glu)) [Example 257] = -0.87
Y[Aib]QGTFTSDFS[Dap][αMeL]LDKK([AEEA-γGlu-C18 diacid])AQ[Aib]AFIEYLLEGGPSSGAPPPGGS-NH2 (ends and bridges not checked) [Example 68] = -0.34
YXQGTXTSDXXIXLDXKAQXXFIEYLIEGGPSSGEPPPSGTE (not fully specified; printed without C-terminal amide; synthetic construct; SITE 2: note = 2-Aminoisobutyric Acid; SITE 6: note = alpha-methyl-2-fluoro-L-phenylalanine; SITE 10: note = 3-(4-Pyridyl)-L-alanine; SITE 11: note = alpha-methyl-L-serine; SITE 13: note = alpha-methyl-leucine; SITE 16: note = L-ornithine; SITE 17: note = Lysine is chemically mo) [Example 522] = -1.48
YXQGTFTSDFSXXLDKKAQXAFIEWLLEGGPSSGAPXPSGE (synthetic construct; SITE 2: note = 2-Aminoisobutyric Acid; SITE 12: note = L-ornithine; SITE 13: note = alpha-methyl-leucine; SITE 17: note = Lysine is chemically modified through conjugation of the epsilon-amino group of the Lysine side chain with (2-[2-(2-Amino-ethoxy)-ethoxy]-acetyl)-(gamma-Glu)) [Example 137] = -0.57
YXQGTFTSDFSXXLDKKAQXAFIEYLLEAGPSSGAPPPEGE (Aib, Orn, αMeL, D-Ala; AEEA-γGlu-C18 diacid acyl; amide; synthetic construct; SITE 2: note = 2-Aminoisobutyric Acid; SITE 12: note = L-ornithine; SITE 13: note = alpha-methyl-leucine; SITE 17: note = Lysine is chemically modified through conjugation of the epsilon-amino group of the Lysine side chain with (2-[2-(2-Amino-ethoxy)-ethoxy]-acetyl)-(gamma-Glu)) [Example 206] = -0.65
YXQGTXTSDXXIXLDXKAAXEFIEXLIEGGPSSGEPPPSGGGE (synthetic construct; SITE 2: note = 2-Aminoisobutyric Acid; SITE 6: note = alpha-methyl-2-fluoro-L-phenylalanine; SITE 10: note = 3-(4-Pyridyl)-L-alanine; SITE 11: note = alpha-methyl-L-serine; SITE 13: note = alpha-methyl-leucine; SITE 16: note = L-ornithine; SITE 17: note = Lysine is chemically mo) [Example 748] = -1.98
Y[Aib]QGT[αMePhe(2-F)]TSDYSKLLDKIAQK[Orn]FIEWLIEGGPSSGEPPPSEG-NH2 (not fully specified (residue 20); ends and bridges not checked) [Example 310] = -1.03
YXQGTXTSDXXIXLDXKAAXEFIEXLIEGGPSSGEPPPSGTE (synthetic construct; SITE 2: note = 2-Aminoisobutyric Acid; SITE 6: note = alpha-methyl-2-fluoro-L-phenylalanine; SITE 10: note = 3-(4-Pyridyl)-L-alanine; SITE 11: note = alpha-methyl-L-serine; SITE 13: note = alpha-methyl-leucine; SITE 16: note = L-ornithine; SITE 17: note = Lysine is chemically mo) [Example 719] = -2.00
